Assay: gradient 5% acetonitrile 3 min, to 50% in 2 min, to 85% in 15 min, held 3 min, 100 µL/min
Settings: column: Zorbax Extend-C18 2.1 x 50 mm; eluents: water / acetonitrile, 0.1% formic acid
measured_metric: RP-LC retention time (s)
Express it in s; write the number only.

Field request: RP-LC retention time | item: `COCCCN(Cc1ccco1)c1nc(-c2ccc(OC)cc2)nc2ccccc12`
823

Reported RP-LC retention time for CCOC(=O)N1CCC(NC(=O)C2CCCN(c3cc(=O)n(C)c(=O)n3C)C2)CC1 (centres undefined) : what is it?
621

I am curious: what RP-LC retention time value has been reported for `CCCNC(=O)c1ccc(-c2nc3cc(NS(=O)(=O)c4cccs4)ccc3n2C)cc1` ?
662

Reported RP-LC retention time, compound `COC(=O)c1ccc(NC(=O)Cn2c(-c3cccnc3)nc3ccccc32)cc1` : ____
708

Item under review: CC(C)NC(=O)N1CCCC(c2cccc(C(=O)NCc3cccs3)c2)C1 (centres undefined) . Reported RP-LC retention time?
799

Which value of RP-LC retention time has been reported for `COc1ccc(C(=O)N2CCN(c3cc(-c4cccs4)[nH]n3)CC2)c(OC)c1` in the records?
739

Which RP-LC retention time value is on record for `COc1ccc(Cl)cc1NC(=O)CSc1ccc2nnc(-c3cccs3)n2n1` ?
766

If you can, please state the reported RP-LC retention time value of `COc1ccc(-c2[nH]ncc2CN2C[C@@H]3CCN(S(C)(=O)=O)C[C@]3(CF)C2)cc1` .
590

Query: RP-LC retention time; subject: `O=C(C1=CN(c2ccc3c(c2)OCCO3)c2ccccc2S1(=O)=O)N1CCCCC1`
830

====

Experiment: gradient 5% acetonitrile 3 min, to 50% in 2 min, to 85% in 15 min, held 3 min, 100 µL/min
Conditions: column: Zorbax Extend-C18 2.1 x 50 mm; eluents: water / acetonitrile, 0.1% formic acid
Class assignment keyed on RP-LC retention time, ranges 0 (below 600 s), 1 (600 s to below 1000 s), 2 (1000 s or more)

Class? Entry: CCN1C(=O)C(CC(=O)NCCCN(C)C)Sc2ncccc21 (centres undefined)
0

Determine which band this molecule sits in: `Cc1[nH]c(=O)[nH]c(=O)c1CC(=O)Nc1cccc(NS(C)(=O)=O)c1`
0

Could you tell me which band COc1cc(NC(=O)NC2CCN(c3ccc(F)cc3)C2=O)cc(OC)c1 (centres undefined) belongs to?
1

Which class holds `O=C(NCc1ccccc1)c1nc(-c2ccncc2)cs1` ?
0

Entry `N#Cc1cnc2ccc(F)cc2c1N1CCC(C(=O)Nc2ccc3c(c2)OCCO3)CC1` belongs to which category?
1

Could you place `CCCn1cc(C(=O)NCCCOCC)c(S(=O)(=O)N2CCN(c3ccccc3Cl)CC2)n1` in its proper category? Many thanks.
2

====

Assay: gradient 5% acetonitrile 3 min, to 50% in 2 min, to 85% in 15 min, held 3 min, 100 µL/min
Conditions: column: Zorbax Extend-C18 2.1 x 50 mm; eluents: water / acetonitrile, 0.1% formic acid
measured_metric: RP-LC retention time (s)
Could you give me the number in s? Just the number is fine.

What value of measured RP-LC retention time is listed for `CCOC(=O)c1ccc(NC(=O)N2CCC(CN3CCOCC3)CC2)cc1` ?
610

Would you mind telling me what RP-LC retention time value was observed for `COc1ccc(OC)c(CNC(=O)c2c(N3CCCC3=O)c3cc(OC)ccc3n2C)c1` ?
849

RP-LC retention time lookup needed for CC(C)CN1CCCC(COc2ccccc2C(=O)NC2CC2)C1 (centres undefined) , thanks.
606

Requested field: RP-LC retention time. Item: CN1C(=O)CCCCC1C(=O)NCc1cccs1 (centres undefined)
637

Consider the molecule shown here: `C=CCn1c(=O)c2ccccc2n(Cc2nc(-c3ccc(OC)cc3)no2)c1=O` What is its recorded RP-LC retention time?
1020

What RP-LC retention time value was documented for this molecule, CC1CCCCC12NCCN=C2NCc1cccc(F)c1 (centres undefined) ?
640

Which RP-LC retention time is listed for CN1CCN(CCNC(=O)C2CCc3sc(C(=O)N4CCCCCC4)cc3C2)CC1 (centres undefined) ?
601

Consider the molecule `CCOc1ccc(-c2ccc(=O)n(CCc3nc(-c4cc(OC)cc(OC)c4)no3)n2)cc1` and give its measured RP-LC retention time.
1020

Quick one: RP-LC retention time of COc1ccc(N2CC(c3nnc(NC(=O)COc4ccc(C)cc4)o3)CC2=O)cc1 (centres undefined) ?
742

Given the entry `Cc1ccc2c(C(=O)NCCc3cccs3)cc(NC(=O)C(C)C)cc2n1` , report its measured RP-LC retention time.
643

Looking for the measured RP-LC retention time of `CCCN1C(=O)c2cc(S(=O)(=O)Nc3ccc(F)cc3)ccc2Oc2cccnc21` , can you help?
1060

Entry `O=C(CCc1ccccc1)NCC(=O)Nc1nc2ccccc2[nH]1` : reported RP-LC retention time = ?
640

Requested field: RP-LC retention time. Item: O=C(NCC(c1cccnc1)c1c[nH]c2ccccc12)Nc1cccc(F)c1 (centres undefined)
671

// query RP-LC retention time value for entry `Cc1ccc(-c2ncccc2CNC(=O)c2ccco2)cc1`
608

Need RP-LC retention time, item `O=C1NCCCCCCN[C@H]2C[C@H](C(=O)N3CCc4ccccc4C3)C[C@@H]12`
612

Entry `COc1ccc(C(=O)N2CCN(c3cc(C)n4cnnc4n3)CC2)c(OC)c1` has what RP-LC retention time?
999

// RP-LC retention time lookup, key: `O=C(Cc1csc(-n2cccc2)n1)NCCc1c[nH]c2ccccc12`
840

Could you share which RP-LC retention time value was measured for Cc1ncsc1C1N(C2CCN(C(=O)c3ccoc3)CC2)C(=O)C12CCCC2 (centres undefined) ?
719

Recorded RP-LC retention time of O=C(NC1CC1)c1cn(CCC2CCCCN2C(=O)C2CC2)nn1 (centres undefined) , please.
636

Find the recorded RP-LC retention time belonging to `Cc1ccc(-c2nc3nc(C)c(CC(=O)NC(C)C)c(C)n3n2)cc1` and report it.
761

# query: RP-LC retention time of entry `O=C(CSc1cc(N2CCN(c3ccccc3F)CC2)ncn1)NC1CCCCC1`
1050

Entry under review: CCN(CC)CCNC(=O)c1cc2n(n1)CC(C)(C(=O)NCc1ccc(F)cc1)N(C)C2=O (centres undefined) . Reported RP-LC retention time?
589

Need RP-LC retention time, item `Cc1ccccc1-c1nc(C2CCN(S(=O)(=O)c3ccc(C(C)C)cc3)CC2)no1`
1340

Please report the recorded RP-LC retention time for `O=C(Nc1nnc(-c2ccco2)o1)C1c2ccccc2Oc2ccccc21` .
783

I am curious: what RP-LC retention time value has been reported for `Cc1c(-c2ccc(O)cc2)n(Cc2ccc(OCCN3CCCCCC3)cc2)c2ccc(O)cc12` ?
720

# RP-LC retention time lookup, item `Cc1nc(-c2cnccn2)n(CC(=O)Nc2ccc(F)c(Cl)c2)c(=O)c1C`
789

Given the entry `CCN1CCn2cc(S(=O)(=O)Nc3ccc(F)cc3Cl)cc2C1=O` , report its measured RP-LC retention time.
736

Please give the measured RP-LC retention time for this molecule: `COc1cccc(CNC(=O)N2CCC(N3CCN(Cc4ccccc4)C(=O)C3=O)CC2)c1`
698

For the molecule shown here, COc1ccc(S(=O)(=O)N2CCCC(C(=O)NCCc3ccc(OC)c(OC)c3)C2)cc1C (centres undefined) , give the reported RP-LC retention time.
870

Sample `COC(=O)c1sc2ccccc2c1S(=O)(=O)N1CCC(C(N)=O)(N2CCCCC2)CC1` — what was its RP-LC retention time?
652

Query: RP-LC retention time; subject: `Cc1nc2ccn(Cc3cccnc3)c(=O)c2cc1C(=O)NCCC(C)C`
605

Look at this molecule and give its reported RP-LC retention time. `Cn1cc(CCNS(=O)(=O)c2ccc(Br)s2)c2cccnc21`
779

Need RP-LC retention time of `COc1ccc(CC(=O)Nc2nnc(-c3ccsc3)o2)cc1OC` , thanks.
655

Please look up its RP-LC retention time: `O=c1c(NCCc2ccc(Cl)cc2)nc2ccncc2n1Cc1ccccc1`
766

So what's the measured RP-LC retention time for this one? `CCOC(=O)Cn1nc2c(-c3nc(-c4ccc(Cl)cc4)no3)cccn2c1=O`
958

State the recorded RP-LC retention time for this entry: CN1C(=O)c2ccccc2C(C(=O)NCc2ccccn2)C1c1cccs1 (centres undefined)
607

Using the record for CS(=O)(=O)N1CCC(C(=O)Nc2ccccc2Cl)Oc2ccccc21 (centres undefined) , report its RP-LC retention time.
935

Given the entry `CCOC(=O)C1CCN(c2cc3c(cc2NC(=O)NC)n(C)c(=O)n3C)CC1` , report its measured RP-LC retention time.
633

Requested read-out: RP-LC retention time. Entry: `CCc1ccccc1NC(=O)Cn1ncc2c(c1=O)N(C1CC1)C(=O)CS2`
718

// provenance: the METLIN SMRT retention time set (Domingo-Almenara et al. 2019)
